System: SF-268 CNS
procedure_text: NCI-60 one-dose screen, 48 h (100 = growth as untreated, 0 = no growth, -100 = all killed)
experimental_conditions: 10 µM unless noted
Experimental: Cells are grown in 96 well plates and exposed to the test compound for 48 hours. Compounds are tested at a single concentration, which is 10^-5 M for most compounds. The reported endpoint is percent growth (GI% or GIPRCNT), where numbers from 0 - 100% represent growth inhibition, and numbers from -100% - 0 represent cell death. For example, a value of 40 represents 60% growth inhibition. A value of 0 means no net growth occurred over the course of the experiment. […]
The panel holds about 83,000 compounds, 20% with a hit somewhere; the sample as a whole holds those more often.
Items are presented alongside their recorded growth.
outcome_measure: growth (%)

In [3]: df
Out[3]:
                                   molecule  result
0  COc1ccc(-c2cn(Cc3ccc4c(Br)cc(Br)c(O)c4n3)nn2)cc1    91.3
1     Oc1ccc(C(c2ccc(O)cc2)c2ccc(Cl)cn2)cc1    92.4
2     O=C1/C(=C/c2ccc(Br)cc2)COc2ccc(O)cc21    89.8
3  CC(C)C(=O)Nc1ncc(C(=O)NCCN(Cc2ccccc2)C(=O)c2ccc(S(=O)(=O)Nc3ccccc3)cc2)s1    89.5
4  COc1ccc(-c2nc3cc(C(=O)NC4CCCCC4)ccc3n2C2CCCCC2)cc1    91.7
5  Cc1[nH]c(C2CC(c3ccc(C(F)(F)F)c(F)c3)=NN2C)c(C)c1C(=O)NCC(F)(F)F (stereo unspecified)    92.4

All values here come from PubChem BioAssay (NCI).
